# assayMethodText: Inhibition of PKA
# Parameters: species or system Homo sapiens
quantityMeasured: IC50 (nM)

INSERT INTO assay_data (molecule, unitname, testvalue) VALUES
  ('NC(C(=O)N1CCN(c2ccc3[nH]ncc3c2)CC1)c1ccc(Br)cc1 (centres undefined)', 'nM', 450);

P = O=C(C(O)c1ccc(Br)cc1)N1CCN(c2ccc3[nH]ncc3c2)CC1 (centres undefined)
Q = NC(C(=O)N1CCC(Nc2ccc3[nH]ncc3c2)CC1)c1ccc(Br)cc1 (centres undefined)
R = O=C(C(O)c1ccc(Br)cc1)N1CCC(Nc2ccc3[nH]ncc3c2)CC1 (centres undefined)
IN: Ascending sort, IC50. // list labels; follow requested order
OUT: Q, P, R

* * *

# assayMethodText: AUC (0 to infinity) in rat at 2 mg/kg, po
# Assay type: ADME, organism-based
# Parameters: time infinity, dose 2 mg/kg, route oral
# experimentalContext: plasma
quantityMeasured: AUC(0-inf) (µM·h)

INSERT INTO results (compound, quantitymeasured, unitname, testvalue) VALUES
  ('NC(C(=O)N1CCC(Nc2ccc3[nH]ncc3c2)CC1)c1ccc(Br)cc1 (centres undefined)', 'AUC(0-inf)', 'µM·h', 0.15);

A = O=C(C(O)c1ccc(Br)cc1)N1CCN(c2ccc3[nH]ncc3c2)CC1 (centres undefined)
B = O=C(C(O)c1ccc(Br)cc1)N1CCC(Nc2ccc3[nH]ncc3c2)CC1 (centres undefined)
C = NC(C(=O)N1CCN(c2ccc3[nH]ncc3c2)CC1)c1ccc(Br)cc1 (centres undefined)
IN: Ascending sort, AUC(0-inf). // list labels; follow requested order
OUT: C, A, B
(C: 0.09 µM·h, A: 0.21 µM·h, B: 0.71 µM·h)

* * *

Data export: IC50 values recorded with Cytochrome P450 3A4 (Homo sapiens, UniProt P08684).
Sequence (P08684 whole entry): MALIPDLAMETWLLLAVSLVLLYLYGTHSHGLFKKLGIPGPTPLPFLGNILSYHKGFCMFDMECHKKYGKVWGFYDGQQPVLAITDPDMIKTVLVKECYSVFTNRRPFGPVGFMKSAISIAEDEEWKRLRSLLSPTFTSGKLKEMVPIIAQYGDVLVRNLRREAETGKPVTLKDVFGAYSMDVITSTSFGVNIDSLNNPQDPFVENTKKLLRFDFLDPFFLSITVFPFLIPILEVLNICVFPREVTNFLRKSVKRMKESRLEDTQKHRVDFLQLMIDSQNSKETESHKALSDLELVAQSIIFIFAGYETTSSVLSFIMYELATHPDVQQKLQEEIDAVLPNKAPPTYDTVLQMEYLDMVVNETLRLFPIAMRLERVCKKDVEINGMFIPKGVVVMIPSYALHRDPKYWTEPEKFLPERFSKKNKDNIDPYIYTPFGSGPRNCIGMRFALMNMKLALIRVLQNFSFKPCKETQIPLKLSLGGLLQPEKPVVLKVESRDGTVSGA
quantityMeasured: IC50 (µM)

INSERT INTO assay_data (molecule, assayedsystem, quantitymeasured, unitname, testvalue) VALUES
  ('NC(C(=O)N1CCN(c2ccc3[nH]ncc3c2)CC1)c1cccc(Cl)c1 (stereo not drawn)', 'Cytochrome P450 3A4 (Homo sapiens, UniProt P08684)', 'IC50', 'µM', 0.25);

I = NC(C(=O)N1CCC(Nc2ccc3[nH]ncc3c2)CC1)c1cccc(Cl)c1 (stereo not drawn)
II = O=C([C@@H]1Cc2ccccc2CN1)N1CCN(c2ccc3[nH]ncc3c2)CC1
IN: Pick the one with the larger IC50: I vs II The response must carry the label of the picked entry.
OUT: II
(II: 10 µM, I: 0.17 µM)

A = NC(C(=O)N1CCC(Nc2ccc3[nH]ncc3c2)CC1)c1ccc(Br)cc1 (stereo not drawn)
B = C[C@@H](N)C(=O)N1CCN(c2ccc3[nH]ncc3c2)CC1
IN: Pick the one with the larger IC50: A vs B The response must carry the label of the picked entry.
OUT: B
(B: 10 µM, A: 0.49 µM)

1 = O=C(C(O)c1ccc(Br)cc1)N1CCC(Nc2ccc3[nH]ncc3c2)CC1 (stereo not drawn)
2 = N[C@H](Cc1ccccc1)C(=O)N1CCN(c2ccc3[nH]ncc3c2)CC1
IN: Between the entries labeled 1 and 2 , whose measured IC50 is lower? The response must carry the label of the picked entry.
OUT: 1

* * *

# assayMethodText: Clearance in rat at 1 mg/kg, iv
# Format: ADME, organism-based
# Set-up: dose 1 mg/kg, route intravenous
# experimentalContext: in vivo
quantityMeasured: clearance (mL/min/kg)

INSERT INTO results (compound, testvalue) VALUES
  ('O=C(C(O)c1ccc(Br)cc1)N1CCC(Nc2ccc3[nH]ncc3c2)CC1 (centres undefined)', 30.3);

A = NC(C(=O)N1CCN(c2ccc3[nH]ncc3c2)CC1)c1ccc(Br)cc1 (centres undefined)
B = O=C(C(O)c1ccc(Br)cc1)N1CCN(c2ccc3[nH]ncc3c2)CC1 (centres undefined)
C = NC(C(=O)N1CCC(Nc2ccc3[nH]ncc3c2)CC1)c1ccc(Br)cc1 (centres undefined)
IN: Ascending sort, clearance. // list labels; follow requested order
OUT: C, A, B

* * *

# assayMethodText: Cmax in rat at 2 mg/kg, po
# Type: ADME, organism-based
# Design: dose 2 mg/kg, route oral
# experimentalContext: in vivo
quantityMeasured: Cmax (µM)

INSERT INTO assay_data (compound, testvalue) VALUES
  ('O=C(C(O)c1ccc(Br)cc1)N1CCN(c2ccc3[nH]ncc3c2)CC1 (centres undefined)', 0.1);

I = NC(C(=O)N1CCN(c2ccc3[nH]ncc3c2)CC1)c1ccc(Br)cc1 (centres undefined)
II = NC(C(=O)N1CCC(Nc2ccc3[nH]ncc3c2)CC1)c1ccc(Br)cc1 (centres undefined)
III = O=C(C(O)c1ccc(Br)cc1)N1CCC(Nc2ccc3[nH]ncc3c2)CC1 (centres undefined)
IN: Ascending sort, Cmax. // list labels; follow requested order
OUT: II, III, I
(II: 0.1 µM, III: 0.2 µM, I: 0.4 µM)

* * *

# assayMethodText: Half life in rat at 1 mg/kg, iv
# Assay type: ADME, organism-based
# Design: dose 1 mg/kg, route intravenous
# experimentalContext: in vivo
quantityMeasured: half-life (min)

INSERT INTO measurements (compound, quantitymeasured, testvalue) VALUES
  ('NC(C(=O)N1CCC(Nc2ccc3[nH]ncc3c2)CC1)c1ccc(Br)cc1 (centres undefined)', 'half-life', 36),
  ('NC(C(=O)N1CCN(c2ccc3[nH]ncc3c2)CC1)c1ccc(Br)cc1 (centres undefined)', 'half-life', 36);

I = O=C(C(O)c1ccc(Br)cc1)N1CCN(c2ccc3[nH]ncc3c2)CC1 (centres undefined)
II = O=C(C(O)c1ccc(Br)cc1)N1CCC(Nc2ccc3[nH]ncc3c2)CC1 (centres undefined)
IN: Between the entries labeled I and II , whose measured half-life is lower? The response must carry the label of the picked entry.
OUT: I
(I: 42 min, II: 66 min)

* * *

# assayMethodText: Tmax in rat at 2 mg/kg, po
# Type: ADME, organism-based
# Parameters: dose 2 mg/kg, route oral
# experimentalContext: in vivo
quantityMeasured: Tmax (min)

# count of solved cases: 2
INSERT INTO results (compound, unitname, testvalue) VALUES
  ('NC(C(=O)N1CCN(c2ccc3[nH]ncc3c2)CC1)c1ccc(Br)cc1 (centres undefined)', 'min', 24),
  ('O=C(C(O)c1ccc(Br)cc1)N1CCC(Nc2ccc3[nH]ncc3c2)CC1 (centres undefined)', 'min', 24);

P = O=C(C(O)c1ccc(Br)cc1)N1CCN(c2ccc3[nH]ncc3c2)CC1 (centres undefined)
Q = NC(C(=O)N1CCC(Nc2ccc3[nH]ncc3c2)CC1)c1ccc(Br)cc1 (centres undefined)
IN: Between the entries labeled P and Q , whose measured Tmax is lower? The response must carry the label of the picked entry.
OUT: P

* * *

# assayMethodText: Metabolic stability in human liver microsomes
# experimentalContext: microsomes
quantityMeasured: half-life (min)
# unit: min | format: bare number

IN: Look at this molecule and give its reported half-life. NC(C(=O)N1CCC(Nc2ccc3[nH]ncc3c2)CC1)c1ccc(Br)cc1 (stereo unspecified)
OUT: 10.8

* * *

# assayMethodText: Oral bioavailability in rat at 2 mg/kg
# Assay type: ADME, organism-based
# experimentalContext: in vivo
quantityMeasured: bioavailability (%)

# count of solved cases: 2
INSERT INTO assay_data (compound, quantitymeasured, unitname, testvalue) VALUES
  ('NC(C(=O)N1CCC(Nc2ccc3[nH]ncc3c2)CC1)c1ccc(Br)cc1 (centres undefined)', 'bioavailability', '%', 8),
  ('O=C(C(O)c1ccc(Br)cc1)N1CCN(c2ccc3[nH]ncc3c2)CC1 (centres undefined)', 'bioavailability', '%', 28);

P = O=C(C(O)c1ccc(Br)cc1)N1CCC(Nc2ccc3[nH]ncc3c2)CC1 (centres undefined)
Q = NC(C(=O)N1CCN(c2ccc3[nH]ncc3c2)CC1)c1ccc(Br)cc1 (centres undefined)
IN: Pick the one with the larger bioavailability: P vs Q The response must carry the label of the picked entry.
OUT: P
(P: 26%, Q: 8%)

* * *

# assayedSystem: UniProt:O75116
# Sequence (O75116 whole entry): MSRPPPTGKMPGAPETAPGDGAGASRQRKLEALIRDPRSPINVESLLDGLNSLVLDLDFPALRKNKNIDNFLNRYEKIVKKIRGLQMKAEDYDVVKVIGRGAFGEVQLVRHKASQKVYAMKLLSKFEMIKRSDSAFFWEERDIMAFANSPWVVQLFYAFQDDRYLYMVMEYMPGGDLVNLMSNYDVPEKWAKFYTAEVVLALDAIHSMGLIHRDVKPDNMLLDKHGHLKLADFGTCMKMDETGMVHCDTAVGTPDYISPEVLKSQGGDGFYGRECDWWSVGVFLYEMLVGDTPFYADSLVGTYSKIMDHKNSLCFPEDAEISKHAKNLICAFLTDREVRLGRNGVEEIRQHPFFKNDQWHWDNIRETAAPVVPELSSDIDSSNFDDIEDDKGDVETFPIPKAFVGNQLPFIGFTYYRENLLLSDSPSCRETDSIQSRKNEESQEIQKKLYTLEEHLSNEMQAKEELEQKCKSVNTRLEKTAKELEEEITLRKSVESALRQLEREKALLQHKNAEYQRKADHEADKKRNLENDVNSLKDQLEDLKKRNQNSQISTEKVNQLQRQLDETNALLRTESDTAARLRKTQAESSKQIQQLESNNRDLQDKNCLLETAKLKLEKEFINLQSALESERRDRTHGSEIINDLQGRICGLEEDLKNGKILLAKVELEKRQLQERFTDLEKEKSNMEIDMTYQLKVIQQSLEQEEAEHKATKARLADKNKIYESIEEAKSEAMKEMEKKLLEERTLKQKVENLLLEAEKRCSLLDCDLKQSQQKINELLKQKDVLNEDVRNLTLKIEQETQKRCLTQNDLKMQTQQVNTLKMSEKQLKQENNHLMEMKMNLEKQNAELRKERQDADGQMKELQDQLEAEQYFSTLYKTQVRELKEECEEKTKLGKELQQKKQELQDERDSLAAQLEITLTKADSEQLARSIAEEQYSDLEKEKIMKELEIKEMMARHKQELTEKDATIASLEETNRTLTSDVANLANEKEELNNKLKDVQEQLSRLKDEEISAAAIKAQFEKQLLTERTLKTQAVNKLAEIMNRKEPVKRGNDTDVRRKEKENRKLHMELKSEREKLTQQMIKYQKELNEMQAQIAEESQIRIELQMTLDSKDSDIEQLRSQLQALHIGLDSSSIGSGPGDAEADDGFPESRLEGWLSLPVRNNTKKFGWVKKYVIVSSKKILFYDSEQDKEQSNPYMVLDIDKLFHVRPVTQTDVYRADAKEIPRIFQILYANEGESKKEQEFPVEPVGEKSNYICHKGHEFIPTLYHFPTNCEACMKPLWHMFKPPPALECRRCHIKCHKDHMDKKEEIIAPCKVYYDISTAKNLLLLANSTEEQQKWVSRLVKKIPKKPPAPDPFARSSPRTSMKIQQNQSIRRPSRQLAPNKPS
pIC50: −log10 of the molar value.
quantityMeasured: pIC50

INSERT INTO measurements (molecule, assayedsystem, testvalue) VALUES
  ('O=C([C@@H]1Cc2ccccc2CN1)N1CCN(c2ccc3[nH]ncc3c2)CC1', 'UniProt:O75116', 5.28),
  ('N[C@@H](Cc1ccccc1)C(=O)N1CCC(Nc2ccc3[nH]ncc3c2)CC1', 'UniProt:O75116', 6.33),
  ('CC(C)[C@@H](O)C(=O)N1CCN(c2ccc3[nH]ncc3c2)CC1', 'UniProt:O75116', 5.41),
  ('N[C@H](Cc1ccccc1)C(=O)N1CCN(c2ccc3[nH]ncc3c2)CC1', 'UniProt:O75116', 6.42),
  ('NC(C(=O)N1CCC(Nc2ccc3[nH]ncc3c2)CC1)c1cccc(Cl)c1 (stereo unspecified)', 'UniProt:O75116', 6.82);

a = N[C@H](C(=O)N1CCC(Nc2ccc3[nH]ncc3c2)CC1)c1ccccc1
b = O=C([C@@H](O)c1ccccc1Cl)N1CCC(Nc2ccc3[nH]ncc3c2)CC1
c = O=C(C(O)c1ccc(Br)cc1)N1CCN(c2ccc3[nH]ncc3c2)CC1 (stereo unspecified)
d = C[C@H](N)C(=O)N1CCC(Nc2ccc3[nH]ncc3c2)CC1
e = NC(C(=O)N1CCC(Nc2ccc3[nH]ncc3c2)CC1)c1ccc(Br)cc1 (stereo unspecified)
IN: // sort entries: pIC50, high to low // list labels; follow requested order
OUT: e, c, a, b, d
